Test system: MCF7
Test: Cytotoxicity against human MCF7 cells assessed as cell growth inhibition incubated for 48 hrs by MTT assay
Format: functional, cell-based
Details: MCF7, 48 h
pIC50: −log10 of the molar value.
VALUE_TYPE: pIC50

- CC(=O)Nc1sc(C(C)=O)c(Nc2ccc(C(C)=O)cc2)c1C#N: 4.19
- CC(=O)c1ccc(Nc2c(C(C)=O)sc(NC(=O)CC#N)c2C#N)cc1: 4.38
- CC(=O)c1ccc(Nc2c(C(C)=O)sc(N)c2C#N)cc1: 4.04
- CC(=O)c1ccc(Nc2c(C(=O)/C=C/c3ccccc3)sc(N)c2C#N)cc1: 4.17
- CC(=O)c1ccc(Nc2c(C(=O)/C=C/c3ccccc3)sc(/N=C/c3ccccc3)c2C#N)cc1: 4.72

---

Tested on: Heyndrickxia coagulans
Test: Antibacterial activity against Bacillus coagulans assessed as bacterial growth inhibition
Format: functional
Entries annotated with measured MIC
VALUE_TYPE: MIC

- N#Cc1c(NC(=O)c2cc(O)c(O)c(O)c2)sc2c1CCCC2: 0.15 µg/mL
- O=C(N[C@H](CO)[C@H](O)c1ccc([N+](=O)[O-])cc1)C(Cl)Cl: 0.41 µg/mL
- Cc1sc(NC(=O)c2cc(O)c(O)c(O)c2)c(C#N)c1C: 0.15 µg/mL
- N#Cc1c(NC(=O)c2cc(O)c(O)c(O)c2)sc2c1CCC2: 0.1 µg/mL
- N#Cc1c(NC(=O)c2cc(O)c(O)c(O)c2)sc2c1CCCCC2: 0.15 µg/mL

---

Test system: HepG2
Assay: Cytotoxicity against human HepG2 cells assessed as cell growth inhibition incubated for 48 hrs by MTT assay
Assay type: functional, cell-based
Conditions: hepg2
VALUE_TYPE: IC50 (µM)

* CC(=O)c1ccc(Nc2c(C(=O)/C=C/c3ccccc3)sc(/N=C/c3ccccc3)c2C#N)cc1 | 26.2

---

Test system: Trichophyton rubrum
Test: Antifungal activity against Trichophyton rubrum 6753 assessed as fungal growth inhibition by spectrophotometry
Assay type: functional
compounds and their reported MIC
VALUE_TYPE: MIC (µg/mL)

- N#Cc1ccsc1/N=C/c1c(Cl)cccc1Cl: 32
- N#Cc1ccsc1/N=C/c1c[nH]c2cccc([N+](=O)[O-])c12: 64
- COc1cc(/C=N/c2sccc2C#N)cc(OC)c1OC: 64
- N#Cc1ccsc1/N=C/c1ccc([N+](=O)[O-])cc1: 64
- N#Cc1ccsc1/N=C/c1cccc([N+](=O)[O-])c1: 128
- N#Cc1ccsc1/N=C/c1ccc(Br)cc1: 32

---

Assay: Cytotoxicity against human WI-38 cells assessed as cell growth inhibition incubated for 2 days by MTT assay
Type: toxicity, cell-based
Below is a list of entries, each paired with its recorded IC50 at 2 days value.
VALUE_TYPE: IC50 at 2 days

- N#Cc1c(NC(=O)/C=C/c2ccc(O)cc2)sc2c1CCC2: 236 µM
- COc1ccc(OC)c(/C=C/C(=O)Nc2sc3c(c2C#N)CCCC3)c1: 260 µM
- COc1ccc(OC)c(/C=C/C(=O)Nc2sc3c(c2C#N)CCC3)c1: 185 µM

---

Test system: Trichophyton mentagrophytes
Test: Antifungal activity against Trichophyton mentagrophytes 5432 assessed as fungal growth inhibition by spectrophotometry
Assay type: functional
VALUE_TYPE: MIC (µg/mL)

• N#Cc1ccsc1/N=C/c1c[nH]c2cccc([N+](=O)[O-])c12 = 512
• N#Cc1ccsc1/N=C/c1ccccc1 = 256
• N#Cc1ccsc1/N=C/c1ccc(Br)cc1 = 1020
• COc1cc(/C=N/c2sccc2C#N)cc(OC)c1OC = 128

---

Assay: Inhibition of CaCC current potentiation in rat cerebellar Purkinje neurons by electrophysiological method
VALUE_TYPE: IC50 (nM)

- COC(=O)c1c(NC(=O)Cn2cc(CNC34CC5CC(CC(C5)C3)C4)nn2)sc2c1CCCC2: 1600

---

Test system: Mycobacterium tuberculosis
Test: Antimycobacterial activity against Mycobacterium tuberculosis H37Ra incubated for 8 to 12 days by XTT reduction menadione assay
Assay type: functional
Conditions: time 8-12 day
VALUE_TYPE: MIC

• COC(=O)c1ccsc1NC(=O)N[C@@H](C(=O)N[C@@H]1C(=O)N2[C@@H]1SC(C)(C)[C@@H]2C(=O)O)c1ccccc1 = > 50 µg/mL
• COC(=O)c1c(NC(=O)N[C@@H](C(=O)N[C@@H]2C(=O)N3[C@@H]2SC(C)(C)[C@@H]3C(=O)O)c2ccc(O)cc2)sc2c1CCCCCC2 = > 50 µg/mL
• COC(=O)c1c(NC(=O)N[C@@H](C(=O)N[C@@H]2C(=O)N3[C@@H]2SC(C)(C)[C@@H]3C(=O)O)c2ccccc2)sc2c1CCCCCC2 = 23.3 µg/mL

---

Test system: Epidermophyton floccosum
Assay: Antifungal activity against Epidermophyton floccosum 6999 assessed as fungal growth inhibition by spectrophotometry
Assay type: functional
Flag rule - MIC less than 60 µg/mL flags Satisfied; the remaining entries get Not satisfied.

* N#Cc1ccsc1/N=C/c1ccccc1 | Satisfied
* N#Cc1ccsc1/N=C/c1cccc([N+](=O)[O-])c1 | Not satisfied
* N#Cc1ccsc1/N=C/c1ccccc1[N+](=O)[O-] | Satisfied
* N#Cc1ccsc1/N=C/c1ccc(Br)cc1 | Not satisfied
* N#Cc1ccsc1/N=C/c1c[nH]c2cccc([N+](=O)[O-])c12 | Not satisfied
* N#Cc1ccsc1/N=C/c1ccc([N+](=O)[O-])cc1 | Not satisfied
* COc1cc(/C=N/c2sccc2C#N)cc(OC)c1OC | Not satisfied

---

// reported pIC50 for each item listed
Tested on: MKN-45
Assay: Antiproliferative activity against human MKN-45 cells assessed as cell growth inhibition by MTT assay
pIC50: −log10 of the molar value.
VALUE_TYPE: pIC50

* N#Cc1c(N)sc(C(=O)Nc2ccc(Cl)cc2)c1-c1ccccc1 | 6.38
* CCOC(=O)c1c(N)sc(C(=O)Nc2ccccc2)c1-c1ccccc1 | 5.09
* CCOC(=O)c1c(N)sc(C(=O)Nc2ccc(Cl)cc2)c1-c1ccccc1 | 6.59
* N#CCC(=O)Nc1sc(C(=O)Nc2ccccc2)c(-c2ccccc2)c1C#N | 5.04
* CCOC(=O)c1c(NC(=O)CC#N)sc(C(=O)Nc2ccc(Cl)cc2)c1-c1ccccc1 | 6.41
* N#Cc1c(N)sc(C(=O)Nc2ccccc2)c1-c1ccccc1 | 5.15
* N#CCC(=O)Nc1sc(C(=O)Nc2ccc(Cl)cc2)c(-c2ccccc2)c1C#N | 6.23
* CCOC(=O)c1c(NC(=O)CC#N)sc(C(=O)Nc2ccccc2)c1-c1ccccc1 | 6.23

---

Test system: Bacillus subtilis
Experiment: Antibacterial activity against Bacillus subtilis NCIM 2079 assessed as reduction in bacterial growth incubated for 8 hrs by absorbance based assay
Assay type: functional, organism-based
Conditions: NCIM 2079, 8 h
pEC50: −log10 of the molar value.
VALUE_TYPE: pEC50

• COC(=O)c1ccsc1NC(=O)N[C@@H](C(=O)N[C@@H]1C(=O)N2[C@@H]1SC(C)(C)[C@@H]2C(=O)O)c1ccc(O)cc1 = 6.82
• COC(=O)c1c(NC(=O)N[C@@H](C(=O)N[C@@H]2C(=O)N3C(C(=O)O)=C(C)CS[C@H]23)c2ccccc2)sc2c1CCCCCC2 = 6.59
• CC1(C)S[C@@H]2[C@H](NC(=O)[C@H](N)c3ccc(O)cc3)C(=O)N2[C@H]1C(=O)O [AMOXICILLIN] = 6.82
• CC1(C)S[C@@H]2[C@H](NC(=O)[C@H](N)c3ccccc3)C(=O)N2[C@H]1C(=O)O [AMPICILLIN] = 6.82
• COC(=O)c1c(NC(=O)N[C@@H](C(=O)N[C@@H]2C(=O)N3[C@@H]2SC(C)(C)[C@@H]3C(=O)O)c2ccc(O)cc2)sc2c1CCCCCC2 = 6.60
• COC(=O)c1c(NC(=O)N[C@@H](C(=O)N[C@@H]2C(=O)N3[C@@H]2SC(C)(C)[C@@H]3C(=O)O)c2ccccc2)sc2c1CCCCCC2 = 6.55
• COC(=O)c1ccsc1NC(=O)N[C@@H](C(=O)N[C@@H]1C(=O)N2C(C(=O)O)=C(C)CS[C@H]12)c1ccccc1 = 6.68
• CC1=C(C(=O)O)N2C(=O)[C@@H](NC(=O)[C@H](N)c3ccccc3)[C@H]2SC1 [CEPHALEXIN ANHYDROUS] = 6.60
• COC(=O)c1ccsc1NC(=O)N[C@@H](C(=O)N[C@@H]1C(=O)N2[C@@H]1SC(C)(C)[C@@H]2C(=O)O)c1ccccc1 = 6.68

---

Tested on: Staphylococcus aureus
Assay: Antibacterial activity against Staphylococcus aureus NCIM 2010 assessed as reduction in bacterial growth incubated for 8 hrs by absorbance based assay
Format: functional, organism-based
Conditions: NCIM 2010, 8 h
Label criterion met when EC50 is strictly below 300 nM; otherwise label criterion not met.

• COC(=O)c1ccsc1NC(=O)N[C@@H](C(=O)N[C@@H]1C(=O)N2[C@@H]1SC(C)(C)[C@@H]2C(=O)O)c1ccccc1 = criterion met
• COC(=O)c1c(NC(=O)N[C@@H](C(=O)N[C@@H]2C(=O)N3C(C(=O)O)=C(C)CS[C@H]23)c2ccccc2)sc2c1CCCCCC2 = criterion met
• COC(=O)c1ccsc1NC(=O)N[C@@H](C(=O)N[C@@H]1C(=O)N2C(C(=O)O)=C(C)CS[C@H]12)c1ccccc1 = criterion met
• CC1=C(C(=O)O)N2C(=O)[C@@H](NC(=O)[C@H](N)c3ccccc3)[C@H]2SC1 [CEPHALEXIN ANHYDROUS] = criterion not met
• COC(=O)c1c(NC(=O)N[C@@H](C(=O)N[C@@H]2C(=O)N3[C@@H]2SC(C)(C)[C@@H]3C(=O)O)c2ccccc2)sc2c1CCCCCC2 = criterion met
